- Tested on: Klebsiella pneumoniae
- procedure-text: Minimal inhibitory concentration against Klebsiella pneumoniae ATCC 10031 strain
- Type: functional
MIC values by entry

• CC1Cn2cc(C(=O)O)c(=O)c3cc(F)c(N4CCN(c5ccccn5)CC4)c(c32)S1 (stereo unspecified) = 2 µg/mL
• O=C(O)c1cn2c3c(c(Cl)c(F)cc3c1=O)SC(c1ccccc1F)C2 (stereo unspecified) = 0.5 µg/mL
• CC1Cn2cc(C(=O)O)c(=O)c3cc(F)c(N4CCNCC4)c(c32)S1 (stereo unspecified) = 2 µg/mL
• CC1Cn2cc(C(=O)O)c(=O)c3cc(F)c(N4CCN(c5ccc(F)cc5)CC4)c(c32)S1 (stereo unspecified) = > 64 µg/mL
• CC1Cn2cc(C(=O)O)c(=O)c3cc(F)c(N4CCCC4)c(c32)S1 (stereo unspecified) = 2 µg/mL
• CC1Cn2cc(C(=O)O)c(=O)c3cc(F)c(N4CCN(S(=O)(=O)c5ccc(F)cc5)CC4)c(c32)S1 (stereo unspecified) = 1 µg/mL

Query: Requested read-out MIC, target or system Klebsiella pneumoniae, entry CC1Cn2cc(C(=O)O)c(=O)c3cc(F)c(N4CCN(C=O)CC4)c(c32)S1 (stereo unspecified)
Reply: 0.5 µg/mL
